Entries annotated with measured growth inhibition
Assay method text: NCI Yeast Anticancer Drug Screen. Data for the rad18 strain (AID 177)
Run conditions: S. cerevisiae rad18 mutant growth inhibition; at 3.7 µM; stronger effect = higher value
Description: Growth inhibition of yeast strains with defined genetic alterations is measured as a screen for potential anti-cancer activity. Selected strains with alterations in DNA damage repair or cell cycle control were exposed to compounds and growth inhibition was measured relative to vehicle treated controls. The strain used in this assay is rad18
About 79,000 compounds went through this panel and 15% of them were active in at least one assay; those are over-represented in the sample as a whole.
Quick note: give the figure in %, leave out the unit.

Compound | growth inhibition / %
O=c1c2ccccc2nc(-c2ccccc2)n1O | 35
c1ccc2c(c1)sc1c3cnccc3ccc21 | 1
CN(C)CCNC(=O)c1cccc2c1Oc1c(cccc1[N+](=O)[O-])O2 | 0
Cc1cc(S(=O)(=O)Nc2nnc3cnc4ccccc4n23)c(S)cc1Cl | -1

[in] Please give the documented growth inhibition of `CN(C)CCCCN1c2ccccc2Sc2ccc(N=[N+]=[N-])cc21`
[out] 14

[in] Please give the documented growth inhibition of CCCCN(CCCC)CCC(O)c1cc2c(Cl)cc(Cl)cc2c2cc(C(F)(F)F)ccc12 (stereo not drawn)
[out] 29

[in] Please give the documented growth inhibition of `Cc1ccc2nc(-c3cccc([N+](=O)[O-])c3)oc(=O)c2c1`
[out] -4

[in] Please give the documented growth inhibition of COC(=O)CCC(NC(=S)N/N=C(\C)c1ccccn1)C(=O)OC (stereo not drawn)
[out] -27

[in] Please give the documented growth inhibition of `CCOC(=O)C(C(=O)OCC)=P(c1ccccc1)(c1ccccc1)c1ccccc1`
[out] 7

[in] Please give the documented growth inhibition of `CCOC(=N)c1ccc(O)c(OC)c1`
[out] -3

[in] Please give the documented growth inhibition of `O=c1ssc(=Nc2ccccc2)n1-c1ccccc1`
[out] 3

[in] Please give the documented growth inhibition of Cc1ccc(NC(=O)/C(CC2N=c3c(ccc4c(O)c5ccccc5c(O)c34)=NC2O)=N/NC(C)(C)C)cc1 (stereo not drawn)
[out] 12

[in] Please give the documented growth inhibition of CCOC(=O)COc1c(OC)cc(C2C3=C(COC3=O)Oc3cc4c(cc32)OCO4)cc1OC (stereo not drawn)
[out] -2
